Tested on: BT-549 breast
ASSAY_REMARKS: NCI-60 one-dose screen, 48 h
RUN_PARAMETERS: 10 µM unless noted
The panel holds about 83,000 compounds, 20% with a hit somewhere; the sample as a whole holds those more often. Activity calls are given as the source filed them. The calls were made as follows: active = growth percent below 10; inactive = the rest.
Lab note: assign the record to one of active, inactive

Please let me know the test result on file for `CCNc1ncnc2n[nH]nc12` .
inactive

Please let me know the test result on file for CC(C(=O)O)N1C(N)=NNC1c1ccccc1O (centres undefined) .
inactive

Please let me know the test result on file for `CNCCCOc1c(Br)cc(CCNC(=O)/C(Cc2cc(Br)c(OC)c(Br)c2)=N/O)cc1Br` .
inactive

Please let me know the test result on file for `Nc1ncnc2c1c(-c1ccc(Oc3ccccc3)cc1)nn2C[C@H]1SSC[C@@H]1O` .
inactive

Please let me know the test result on file for `CC1(C)N=C(N)N=C(N)N1c1ccc(OCC(=O)Nc2ccccc2)c(Cl)c1` .
inactive

Please let me know the test result on file for `Cc1cc(O[C@@H]2O[C@@H](C)[C@H](O)[C@@H](O)[C@H]2O)c2c3c(c(O[C@@H]4O[C@@H](C)[C@H](O)[C@@H](O)[C@H]4O)cc2c1)C(=O)c1c(O)cccc1C3=O` .
active

Please let me know the test result on file for `CCCCOc1c(N)cc(Cl)cc1C(=O)OCCN(CC)CC` .
inactive

Please let me know the test result on file for `Clc1ccc(CN2COc3c(ccc4cccnc34)C2)cc1Cl` .
active

Please let me know the test result on file for `COc1ccc(-c2nn(-c3cccc(Cl)c3)cc2-c2cc(-c3ccc(Br)cc3)[nH]c(=O)c2C#N)cc1` .
inactive

====

Test system: HT29 colon
ASSAY_REMARKS: NCI-60 one-dose screen, 48 h
RUN_PARAMETERS: 10 µM unless noted
The panel holds about 83,000 compounds, 20% with a hit somewhere; the sample as a whole holds those more often. Activity calls are given as the source filed them. The calls were made as follows: active = growth percent below 10; inactive = the rest.
Lab note: assign the record to one of yes (active), no (inactive)

Please let me know the test result on file for `CC(C)CCC[C@@H](C)[C@H]1CC[C@H]2[C@@H]3CC=C4N(c5ccccc5)C(=O)CC[C@]4(C)[C@H]3CC[C@]12C` .
no

Please let me know the test result on file for `COc1cc2ncnc(Oc3ccc(NC(=O)Nc4ccc(CN5CCOCC5)c(C(F)(F)F)c4)c4ccccc34)c2cc1OC` .
no

Please let me know the test result on file for `O=C(Nc1cccc(-n2ccc3c(NC(=O)c4ccccc4)nccc32)c1)Nc1cc(C(F)(F)F)cc(C(F)(F)F)c1` .
yes

Please let me know the test result on file for `CCCCOc1c(N)cc(Cl)cc1C(=O)OCCN(CC)CC` .
no

Please let me know the test result on file for `CC[C@@]1(O)C(=O)OCc2c1cc1n(c2=O)Cc2c-1nc1ccccc1c2/C=N/OC(C)(C)C` .
yes

Please let me know the test result on file for `C/C(=N/O)c1ccc(NC(=O)Cn2nc(-c3ccc(Cl)cc3)nc2N)cc1` .
no

Please let me know the test result on file for `COc1ccc(-c2nn(-c3ccc(NC(=O)Nc4ccc(Cl)c(Cl)c4)cc3)cc2-c2ccncc2)cc1Cl` .
yes

Please let me know the test result on file for `COc1ccc(Cl)cc1NC(=O)c1cc2c(n1C)-c1nc(NC(=O)C(C)C)sc1CC2` .
no

Please let me know the test result on file for `CCN(CC)CCC(C(=O)O)(c1ccccc1)c1ccccc1` .
no

Please let me know the test result on file for `O=C(Nc1cccc(-n2ccc3c(NC(=O)c4ccccc4)nccc32)c1)Nc1ccc(Cl)c(C(F)(F)F)c1` .
yes

Please let me know the test result on file for `Cc1ncc(CO)c(C(=O)O)c1O` .
no

Please let me know the test result on file for `COc1ccc(C(=O)NC(=O)Nc2ccc3c(c2)NC(=O)/C3=C\c2[nH]c(C)c(CCC(=O)O)c2C)c(F)c1` .
no

Please let me know the test result on file for `O=c1nc(N2CCOCC2)oc2c(-c3cccc4ccccc34)cccc12` .
no

Please let me know the test result on file for `O=C(Nc1ccc(-n2cc(-c3ccncc3)c(-c3ccc(O)c(Cl)c3)n2)cc1)Nc1cccc(Cl)c1Cl` .
yes

Please let me know the test result on file for `CCCCn1c(-c2cccc(OC)c2)nc2cc(OC)c(OC)cc2c1=O` .
no

Please let me know the test result on file for `Cc1cccc(Cc2cnc(NC(=O)CCc3ccc(C)o3)s2)c1` .
yes

Please let me know the test result on file for N#Cc1c(N)nc2c(c1N)C(c1ccc(Cl)cc1)C1=C(CCCC1=O)N2c1sc2c(c1C#N)CCCC2 (stereo not given) .
no

Please let me know the test result on file for `COc1cc2ncn3c(=O)c4c5c(sc4nc3c2cc1OC)CCCCC5` .
no

Please let me know the test result on file for Cc1cn(C2CC(F)C(CO)O2)c(=O)[nH]c1=O (stereo not given) .
no

Please let me know the test result on file for `Nc1ncnc2c1c(-c1ccc(Oc3ccccc3)cc1)nn2C[C@H]1SSC[C@@H]1O` .
yes

Please let me know the test result on file for N#CC1=C(N)Oc2c(ccc3ccccc23)C1c1cc(=O)oc2ccc(Cl)cc12 (stereo not given) .
yes

Please let me know the test result on file for `COc1ccc2c(c1)C(=O)/C(=C/c1ccc(OCC(=O)c3ccc(Cl)cc3)cc1)O2` .
no

Please let me know the test result on file for `O=[N+]([O-])c1ccc(NS(=O)(=O)c2cc(Cl)ccc2Cl)c2ccccc12` .
no

Please let me know the test result on file for CN1CCN(CC(O)COc2c(Br)c(Br)c(Br)c3c2OC(C)(C)C3)CC1 (stereo not given) .
yes

Please let me know the test result on file for `N#Cc1c(N)nc(Cl)c(C#N)c1C(=O)c1ccccc1` .
no

Please let me know the test result on file for `CC(C)[C@@H]1NC(=O)[C@]2(C)CSC(=N2)c2ccnc(c2)CNC(=O)C[C@@H](/C=C/CCS)OC1=O` .
yes

Please let me know the test result on file for `O=C(NNC(=O)c1ccc([N+](=O)[O-])cc1)c1ccc([N+](=O)[O-])cc1` .
no

Please let me know the test result on file for `COc1ccc(/C(Cl)=N/N=C(\Cl)c2cc(OC)c(OC)c(OC)c2)cc1OC(C)=O` .
no

Please let me know the test result on file for `O=c1c2ccccc2sc2c(N3CCCC3)nc3ccccc3c12` .
no

Please let me know the test result on file for `NS(=O)(=O)c1ccc(-n2nc(-c3ccc(Cl)cc3)ccc2=O)cc1` .
no

Please let me know the test result on file for `Nc1nccc(=S)[nH]1` .
no

Please let me know the test result on file for `C=C1C(=O)O[C@H]2[C@H]1CC/C(COC(=O)c1ccc(Cl)nc1)=C\CC[C@@]1(C)O[C@@H]21` .
yes

Please let me know the test result on file for COCCNC(C(=O)c1ccccc1)c1ccccc1 (stereo not given) .
no

Please let me know the test result on file for `COc1cc(-c2nc(SCC(=O)Nc3ccc(C(C)=O)cc3)[nH]c(=O)c2C#N)cc(OC)c1OC` .
yes

Please let me know the test result on file for `NC(N)=N/N=C/c1ccc([N+](=O)[O-])cc1` .
no

Please let me know the test result on file for `CCOC(=O)NNc1nncc2ccccc12` .
no

Please let me know the test result on file for `CS(=O)(=O)Nc1cccc(-c2ccc3ncnc(Nc4ccc(F)c(Cl)c4)c3c2)c1` .
yes

Please let me know the test result on file for `CN(C)CC/C=C1\c2ccccc2Sc2ccc(Cl)cc21` .
no

Please let me know the test result on file for `COc1ccc2c(c1)/C(=C/c1c(-c3cc(OC)c(OC)c(OC)c3Br)nc3sccn13)C(=O)N2` .
no

Please let me know the test result on file for `COc1ccc(-c2cc(-c3nnc(SC/C(=N\O)c4ccccc4)n3-c3ccccc3)c3ccccc3n2)cc1` .
no
